Values from patent US20260193344A1

Each item that follows carries a reported IC50, ACTH-induced cAMP, MC2R cells.
Molecular target: T1, human ACTH 1-39 (human, not fully specified; N-terminal biotin in the ELISA and HTRF binding assays (p-1487, p-1488); 125I on Tyr23 in Example 9 (p-1542); unlabelled in SPR. Letters unchanged.)
T1 peptide: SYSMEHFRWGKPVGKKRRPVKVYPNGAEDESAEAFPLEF
Assay: cell-based or functional assay
observation.type: IC50, ACTH-induced cAMP, MC2R cells (nM)

binder: Ab11 (antibody, V domains shown) VH: QSLEESGGRLVTPGTSLTLTCTASGFSLSAYDILWVRQAPGKGLESIGMMYDDGDTYYATWAKGRFIISRTSTTMDLKIISPTTEDTATYFCVKGVSNIWGQGTLVTVSS VL: DIVMTQIPASVEAAVGGTVTIKCQASQSIDSSLAWYQQKPGQPPKLLIYSASTLASGVPSRFKGSGSGTEFTLTIGDLECADAATYYCQSYDGSSSSYYGIGFGGGTEVVVKR
meas.value: 0.03

binder: Ab1 (antibody, V domains shown, Full-length rabbit/human chimeric antibody, HEK-293) VH: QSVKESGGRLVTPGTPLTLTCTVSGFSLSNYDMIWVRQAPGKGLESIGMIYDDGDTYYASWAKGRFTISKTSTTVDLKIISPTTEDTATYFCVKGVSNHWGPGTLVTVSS VL: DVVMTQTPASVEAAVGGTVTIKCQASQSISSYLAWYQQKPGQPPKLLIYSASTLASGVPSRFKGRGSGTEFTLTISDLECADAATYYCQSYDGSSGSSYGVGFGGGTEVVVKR
meas.value: 0.14

binder: Ab2 (antibody, V domains shown) VH: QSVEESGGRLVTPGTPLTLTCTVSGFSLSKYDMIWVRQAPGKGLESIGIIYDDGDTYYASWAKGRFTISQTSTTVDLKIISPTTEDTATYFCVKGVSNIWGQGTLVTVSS VL: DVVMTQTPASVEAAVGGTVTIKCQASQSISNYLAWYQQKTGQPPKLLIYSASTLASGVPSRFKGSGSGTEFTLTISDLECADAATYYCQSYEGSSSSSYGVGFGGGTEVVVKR
meas.value: 0.25

binder: Ab9 (antibody, V domains shown) VH: QSVEESGGRLVTPGTPLTLTCTVSGFSLNSYAMSWVRQAPGEGLEWIGIISDSGRTYYASWAKGRFTISKTSTTVDLKITSPTTEDTATYFCAREPEYGYDDYGDWVSDLWGPGTLVTVSS VL: DVVMTQTPASVEAAVGGTVTIKCQASQSISSYLSWYQQKPGQPPKLLIYRASTLASGVPSRFKGSGSGTQFTLTISDLECADAATYYCQSYYYSSSITYRNAFGGGTEVVVKR
meas.value: 0.12

binder: Ab10 (antibody, V domains shown) VH: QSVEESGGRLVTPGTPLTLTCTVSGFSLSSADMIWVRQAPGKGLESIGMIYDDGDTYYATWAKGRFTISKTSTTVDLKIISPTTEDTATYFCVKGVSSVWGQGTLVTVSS VL: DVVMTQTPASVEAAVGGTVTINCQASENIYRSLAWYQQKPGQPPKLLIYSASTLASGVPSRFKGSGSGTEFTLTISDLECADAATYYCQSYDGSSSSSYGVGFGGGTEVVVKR
meas.value: 0.16

binder: Ab3 (antibody, V domains shown) VH: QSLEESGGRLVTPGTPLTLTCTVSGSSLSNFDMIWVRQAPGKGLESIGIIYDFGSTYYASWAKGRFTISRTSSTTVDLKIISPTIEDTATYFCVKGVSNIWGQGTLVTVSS VL: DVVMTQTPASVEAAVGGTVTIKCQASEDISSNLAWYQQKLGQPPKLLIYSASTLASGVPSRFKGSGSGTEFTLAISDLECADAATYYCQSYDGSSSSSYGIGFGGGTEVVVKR
meas.value: 0.29

binder: Ab5 (antibody, V domains shown) VH: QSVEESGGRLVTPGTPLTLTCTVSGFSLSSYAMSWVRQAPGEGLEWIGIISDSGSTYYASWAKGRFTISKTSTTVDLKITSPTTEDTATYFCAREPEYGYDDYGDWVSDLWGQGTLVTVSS VL: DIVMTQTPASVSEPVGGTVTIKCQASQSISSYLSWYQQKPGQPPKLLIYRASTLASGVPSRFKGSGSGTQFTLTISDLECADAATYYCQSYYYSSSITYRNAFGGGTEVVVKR
meas.value: 0.11

binder: Ab6 (antibody, V domains shown) VH: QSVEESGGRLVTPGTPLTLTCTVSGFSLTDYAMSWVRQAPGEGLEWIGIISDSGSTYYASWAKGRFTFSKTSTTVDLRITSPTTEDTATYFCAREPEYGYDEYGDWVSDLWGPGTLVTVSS VL: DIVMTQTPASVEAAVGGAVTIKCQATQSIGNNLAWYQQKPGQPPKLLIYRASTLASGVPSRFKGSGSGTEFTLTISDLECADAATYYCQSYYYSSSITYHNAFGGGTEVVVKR
meas.value: 0.03

binder: Ab12 (antibody, V domains shown) VH: QSVEESGGRLVTPGTPLTLTCTVSGSSLSDYDMIWVRQAPGKGLESIGIIYDDGDTYYATWAKGRFTISKTSTTVDLRIISPTTEDTATYFCVKGVSNMWGPGTLVTVSS VL: DVVMTQTPSSVSAAVGGTVTIKCQASQSIGSSLAWYQQKPGQRPKLLIYAASTLASGVPSRFKGSGSGTEFTLTISDLECADAATYYCQSYDGSSSSSYGVGFGGGTEVVVKR
meas.value: 0.05

binder: Ab7 (antibody, V domains shown, Full-length rabbit/human chimeric antibody, HEK-293) VH: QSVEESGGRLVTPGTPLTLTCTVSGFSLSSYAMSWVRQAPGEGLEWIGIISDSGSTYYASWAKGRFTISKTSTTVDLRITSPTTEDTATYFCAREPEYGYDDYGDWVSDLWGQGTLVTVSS VL: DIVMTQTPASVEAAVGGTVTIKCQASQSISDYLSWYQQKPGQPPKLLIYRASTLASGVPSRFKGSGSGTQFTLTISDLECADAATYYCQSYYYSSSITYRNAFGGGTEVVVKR
meas.value: 0.09
